Values were extracted from ChEMBL document CHEMBL1139669.

target: GABA-A receptor; alpha-1/beta-3/gamma-2 (Homo sapiens, UniProt P14867+P18507+P28472); assay: Displacement of [3H]Ro 15-1788 from human GABA-Aalpha1 receptor plus beta-3-gamma-2 expressed in mouse L(tk-) cells
Sequence (P14867 whole entry): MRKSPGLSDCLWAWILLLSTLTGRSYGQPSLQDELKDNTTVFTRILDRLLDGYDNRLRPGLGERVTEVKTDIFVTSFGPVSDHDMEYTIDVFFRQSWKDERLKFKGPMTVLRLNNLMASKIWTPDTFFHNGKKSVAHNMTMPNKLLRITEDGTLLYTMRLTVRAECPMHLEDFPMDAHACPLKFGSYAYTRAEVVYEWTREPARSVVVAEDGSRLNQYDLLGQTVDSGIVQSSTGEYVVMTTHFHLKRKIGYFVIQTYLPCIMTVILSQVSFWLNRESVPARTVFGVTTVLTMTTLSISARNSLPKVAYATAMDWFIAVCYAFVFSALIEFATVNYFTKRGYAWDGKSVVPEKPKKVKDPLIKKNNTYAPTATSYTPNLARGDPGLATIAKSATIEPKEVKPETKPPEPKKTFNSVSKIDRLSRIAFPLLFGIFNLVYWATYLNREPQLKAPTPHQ
Sequence (P18507 whole entry): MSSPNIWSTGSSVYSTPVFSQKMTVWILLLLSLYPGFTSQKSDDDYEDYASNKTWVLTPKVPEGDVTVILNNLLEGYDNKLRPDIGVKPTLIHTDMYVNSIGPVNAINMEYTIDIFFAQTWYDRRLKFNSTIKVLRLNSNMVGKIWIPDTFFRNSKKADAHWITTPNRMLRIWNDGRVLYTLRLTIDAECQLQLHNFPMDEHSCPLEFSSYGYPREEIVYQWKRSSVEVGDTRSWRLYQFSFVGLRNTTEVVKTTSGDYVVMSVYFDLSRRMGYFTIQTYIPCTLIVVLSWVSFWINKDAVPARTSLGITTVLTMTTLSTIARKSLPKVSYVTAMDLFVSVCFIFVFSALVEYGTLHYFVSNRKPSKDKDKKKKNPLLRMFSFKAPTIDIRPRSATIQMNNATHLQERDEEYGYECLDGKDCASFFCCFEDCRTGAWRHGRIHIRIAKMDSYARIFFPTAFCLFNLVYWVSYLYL
Sequence (P28472 whole entry): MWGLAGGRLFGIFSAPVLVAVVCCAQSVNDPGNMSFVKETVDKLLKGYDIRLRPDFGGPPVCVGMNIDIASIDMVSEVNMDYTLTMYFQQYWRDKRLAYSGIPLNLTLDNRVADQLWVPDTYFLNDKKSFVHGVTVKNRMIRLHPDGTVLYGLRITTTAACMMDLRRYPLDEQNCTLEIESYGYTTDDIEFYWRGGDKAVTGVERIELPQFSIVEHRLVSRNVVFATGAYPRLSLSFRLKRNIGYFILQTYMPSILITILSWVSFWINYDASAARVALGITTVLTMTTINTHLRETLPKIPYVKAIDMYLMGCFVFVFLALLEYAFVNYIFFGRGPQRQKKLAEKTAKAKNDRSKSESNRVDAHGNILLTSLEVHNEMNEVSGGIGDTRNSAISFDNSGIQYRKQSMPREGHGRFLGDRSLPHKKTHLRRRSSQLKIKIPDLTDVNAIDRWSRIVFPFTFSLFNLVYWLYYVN
Assay Readout: pKi
# pKi: negative log10 of molar concentration; output just the value

IN: I would be grateful if you could share the reported pKi for CC(C)(O)c1ccn2c(-c3ccc(F)c(-c4ccccc4C#N)c3)cnc2c1 .
OUT: 8.36

IN: Same lookup for CC(C)(O)c1ccn2c(-c3ccc(F)c(-c4ccccc4C#N)c3)cnc2n1 , please.
OUT: 9.15

IN: Same lookup for CC(C)(O)c1ccn2c(-c3ccc(F)c(-c4ccccc4C#N)c3)cnc2c1F , please.
OUT: 9.70
